- Assay Notes: Plasma pharmacokinetics of esomeprazole and esomeprazole sulfone in goats after IV and SC administration (HPLC, non-compartmental analysis)
- Particulars: goats, 1 mg/kg IV single dose, plasma, geomean, n = 5
Observable: AUCinf (ng·h/mL)

- Compound: "COc1ccc2nc([S@@+]([O-])Cc3ncc(C)c(OC)c3C)[nH]c2c1 [Esomeprazole, esomeprazole]"
  Observable: "AUCinf"
  Numeric Readout: 442

----------
- Assay Notes: Plasma pharmacokinetics of esomeprazole and esomeprazole sulfone in goats after IV and SC administration (HPLC, non-compartmental analysis)
- Particulars: goats, 2 mg/kg SC (SQ) single dose, plasma, geomean, n = 5
Observable: AUClast (ng·h/mL)

- Structure String: "COc1ccc2nc([S@@+]([O-])Cc3ncc(C)c(OC)c3C)[nH]c2c1"
  Observable: "AUClast"
  Reading Unit: "ng·h/mL"
  Numeric Readout: 1020
